Data provenance: ChEMBL document CHEMBL4765331

- Tested on: NCI-H460
- ASSAY_PROCEDURE: Antiproliferative activity against human NCI-H460 cells assessed as inhibition of cell proliferation measured after 72 hrs by MTT assay
- Assay type: functional, cell-based
- EXPERIMENTAL_CONTEXT: NCI-H460, 72 h
VALUE_KIND: pIC50
// returns pIC50 (minus log10 of molar concentration), number only

Data request: What value of measured pIC50 is listed for CC(=O)Cn1c(C)c(C(=O)N2CC[C@H](N)C2)c2c(O)c3c(c(O)c21)C(=O)c1ccccc1C3=O ?
Data returned: 4.79

Data request: What value of measured pIC50 is listed for O=C1c2ccccc2C(=O)c2c1c(O)c1scc(C(=O)NC3CCCNC3)c1c2O (racemic) ?
Data returned: 5.57

Data request: What value of measured pIC50 is listed for CCn1c(C)c(C(=O)N2CC[C@H](N)C2)c2c(O)c3c(c(O)c21)C(=O)c1ccccc1C3=O ?
Data returned: 5.68

Data request: What value of measured pIC50 is listed for Cc1[nH]c2c(O)c3c(c(O)c2c1C(=O)NC1CCNCC1)C(=O)c1ccccc1C3=O ?
Data returned: 5.96

Data request: What value of measured pIC50 is listed for Cc1[nH]c2c(O)c3c(c(O)c2c1C(=O)N[C@H]1CCNC1)C(=O)c1ccccc1C3=O ?
Data returned: 5.28
